- Tested on: UO-31 renal
- protocol-text: NCI-60 one-dose screen, 48 h
- experimental-setup: 10 µM unless noted
About 83,000 compounds went through this panel and 20% of them were active in at least one assay; those are over-represented in the sample as a whole. Active and inactive are the calls of the source. How the source made its calls: active means growth percent below 10; inactive means the rest.
Select the correct class. Options are active, inactive and nothing else.

Record excerpt, results attached:
Task: For this molecule, state the assay outcome: COc1ccc(N=C(c2ccccc2)C2C(=O)c3ccccc3C2=O)cc1
Output: inactive

Task: Try this molecule next: c1cc2ccc3cc2cc1CNCCOCCNCc1ccc2ccc(cc2c1)CNCCOCCNC3
Output: inactive

Task: Try this molecule next: COc1cc2ncn3c(=O)c4c5c(sc4nc3c2cc1OC)CCCC5
Output: inactive

Task: Try this molecule next: O=C(Nc1cccc2c(O)c(N=Nc3ccc(S(=O)(=O)Nc4nccs4)cc3)cc(N=Nc3ccc(S(=O)(=O)Nc4nccs4)cc3)c12)C(Cl)Cl
Output: inactive

Task: Try this molecule next: O=C(c1ccccc1)c1c(/C=C/c2ccccc2)nc2ccccc2c1/C=C/c1ccc(Br)cc1
Output: inactive

Task: Try this molecule next: CC1=NOC(=O)/C1=C\c1ccc(O)cc1
Output: inactive

Others:
Task: For this molecule, state the assay outcome: Nc1n[nH]c(-c2cc(Cl)ccc2O)c1-c1ccccc1
Output: inactive

Task: Try this molecule next: c1ccc(-c2nc([P+](c3ccccc3)(c3ccccc3)c3ccccc3)c(N3CCOCC3)o2)cc1
Output: inactive

====

- System: OVCAR-4 ovarian
- protocol-text: NCI-60 one-dose screen, 48 h (100 = growth as untreated, 0 = no growth, -100 = all killed)
- experimental-setup: 10 µM unless noted
Compounds without any hit were thinned out: in the full panel of roughly 83,000, 20% have a hit.
If the reported growth equals or exceeds 50%, assign fulfilled. If not, assign not fulfilled.

Task: Answer whether growth of COc1cccc(-c2nn(-c3ccccc3)cc2-c2ccnc(NCCNC(=O)Nc3cccc(C(F)(F)F)c3)c2)c1 is greater than or equal to 50%.
Output: not fulfilled

Task: Try this compound next: Nc1n[nH]c(-c2cc(Cl)ccc2O)c1-c1ccccc1
Output: fulfilled

Task: Try this compound next: COc1ccc2[nH]c(O)c(/C=c3/cc4c(c(-c5ccc(F)c(OC)c5)n3)=Nc3ccccc3-4)c2c1
Output: not fulfilled

Task: Try this compound next: CCOC(=O)c1c2c(n3ccc(NC(=O)OC(C)(C)C)cc13)C(=O)c1ncccc1C2=O
Output: not fulfilled

Task: Try this compound next: CCN1C(=O)N(CC)C2C1NN=c1s/c(=C\c3cccs3)c(=O)n12 (stereo not drawn)
Output: fulfilled

Task: Try this compound next: CCN(CCNc1ccc(C)c2sc3ccccc3c(=O)c12)CC(C)(C)O
Output: fulfilled

Task: Try this compound next: COC(=O)c1c2c(c(C)[n+]([O-])c1C)C(=O)C(NCc1ccc(F)cc1)=CC2=O
Output: not fulfilled

Others:
Task: Answer whether growth of COC(=O)[C@]12CC[C@@H](C)[C@H](C)[C@@H]1C1=CC[C@@H]3[C@@]4(C)C(C=O)=C[C@@](C)(COC(=O)/C=C/c5ccccc5)[C@@H]4[C@H](O)C[C@@]3(C)[C@]1(C)CC2 is greater than or equal to 50%.
Output: not fulfilled

====

- Test system: A498 renal
- protocol-text: NCI-60 one-dose screen, 48 h
- experimental-setup: 10 µM unless noted
The panel holds about 83,000 compounds, 20% with a hit somewhere; the sample as a whole holds those more often. Active and inactive are the calls of the source. The calls were made as follows: active = growth percent below 10; inactive = the rest.
Select the correct class. Options are yes (1) (active), no (0) (inactive) and nothing else.

Task: For this compound, state the assay outcome: N#Cc1c2c(nn(-c3ccccc3)c1=O)C(O)=C([N+](=O)[O-])C(c1ccccc1)C2 (centres undefined)
Output: no (0)

Task: Try this compound next: O=C(O)c1ccc2c(c1)CCC2
Output: no (0)

Task: Try this compound next: COC(=O)c1c2c(c[n+]([O-])c1C)C(=O)C=CC2=O
Output: no (0)
